tgt: P2X purinoceptor 7 (Homo sapiens, UniProt Q99572)
Sequence (Q99572 whole entry): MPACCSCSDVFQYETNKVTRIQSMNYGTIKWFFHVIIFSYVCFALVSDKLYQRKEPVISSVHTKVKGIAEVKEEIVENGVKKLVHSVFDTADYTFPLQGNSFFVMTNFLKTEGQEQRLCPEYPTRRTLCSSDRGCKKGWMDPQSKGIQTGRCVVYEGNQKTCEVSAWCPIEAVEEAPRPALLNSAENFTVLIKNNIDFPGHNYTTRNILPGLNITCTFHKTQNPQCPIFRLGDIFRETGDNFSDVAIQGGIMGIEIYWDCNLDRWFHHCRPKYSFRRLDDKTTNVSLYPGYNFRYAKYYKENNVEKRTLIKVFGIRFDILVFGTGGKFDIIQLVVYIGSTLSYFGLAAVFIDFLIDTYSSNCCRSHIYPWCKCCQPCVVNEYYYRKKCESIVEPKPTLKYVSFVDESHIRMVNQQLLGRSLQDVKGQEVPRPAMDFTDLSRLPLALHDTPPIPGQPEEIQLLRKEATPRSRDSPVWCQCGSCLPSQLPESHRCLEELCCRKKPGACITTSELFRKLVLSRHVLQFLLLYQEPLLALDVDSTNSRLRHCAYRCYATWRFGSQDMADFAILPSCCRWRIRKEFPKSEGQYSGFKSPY
assay_explanation: Displacement of [3H]-A804598 from human P2X7 expressed in human HEK293 cell membrane incubated for 1 hr by microplate scintillation counting method
IC50 strictly less than 600 nM = satisfied. Otherwise not satisfied.

Answered cases to consult:
compound_string: O=C(NCc1ccc(Cl)cc1Cl)[C@@H]1CCC(=O)N1c1cccs1
label: not satisfied
//
compound_string: O=C(NCc1ccc(Cl)cc1Cl)[C@@H]1COC(=O)N1c1cccs1
label: not satisfied
//
compound_string: O=C(NCc1ccc(Cl)cc1Cl)[C@@H]1CCC(=O)N1c1ccoc1
label: satisfied

*Q* Is IC50 of O=C(NCc1cccc(C(F)(F)F)c1Cl)[C@@H]1CCC(=O)N1c1cccs1 strictly below 600 nM?
*A* satisfied

*Q* Is IC50 strictly under 600 nM for the entry O=C(NCc1ccc(Cl)cc1Cl)[C@@H]1CCC(=O)N1c1ccco1 ?
*A* satisfied

*Q* Here's an entry: O=C(NCc1ccc(Cl)cc1Cl)[C@@H]1CCC(=O)N1c1ccsc1 . Is its IC50 below 600 nM?
*A* not satisfied

* * *

tgt: P2X purinoceptor 7 (Homo sapiens)
Sequence (whole entry): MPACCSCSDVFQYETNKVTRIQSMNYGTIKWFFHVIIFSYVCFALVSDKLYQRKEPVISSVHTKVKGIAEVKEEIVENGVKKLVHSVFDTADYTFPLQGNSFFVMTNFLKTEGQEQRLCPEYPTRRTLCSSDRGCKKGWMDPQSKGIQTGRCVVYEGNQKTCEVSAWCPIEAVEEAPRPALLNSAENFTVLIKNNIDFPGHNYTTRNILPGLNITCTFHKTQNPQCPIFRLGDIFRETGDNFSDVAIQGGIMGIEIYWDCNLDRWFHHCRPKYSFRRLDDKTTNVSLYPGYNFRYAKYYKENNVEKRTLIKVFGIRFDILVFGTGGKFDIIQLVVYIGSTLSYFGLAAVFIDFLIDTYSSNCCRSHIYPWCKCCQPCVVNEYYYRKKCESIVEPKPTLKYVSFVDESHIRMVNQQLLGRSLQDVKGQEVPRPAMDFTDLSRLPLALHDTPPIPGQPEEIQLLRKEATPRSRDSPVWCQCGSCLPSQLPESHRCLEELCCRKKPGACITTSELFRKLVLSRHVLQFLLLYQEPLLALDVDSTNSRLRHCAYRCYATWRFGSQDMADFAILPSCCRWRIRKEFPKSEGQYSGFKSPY
assay_explanation: Inhibition of human P2X7 expressed in human HEK293 cells assessed as reduction in BzATP-stimulated TO-PRO-3 incorporation at 10 uM preincubated with compound and TO-PRO-3 for 15 mins prior to BzATP addition and measured after 1 hr by Fluo-3AM dye based flow cytometry relative to control
Format: cell-based
Calls of active or inactive are those of the source. How the calls were made is not given here.
reported_endpoint: inhibition

molecule: O=C1CC[C@@H](C(=O)NCC2CCCCC2)N1
tgt: P2X purinoceptor 7 (Homo sapiens)
inhibition: inactive

molecule: O=C(NCc1ccc(Cl)cc1Cl)[C@@H]1CCC(=O)N1Cc1ccccc1Cl
tgt: P2X purinoceptor 7 (Homo sapiens)
inhibition: 85%

molecule: O=C1N[C@H](C(=O)NCc2ccc(Cl)cc2Cl)C/C1=C\N1CCOCC1
tgt: P2X purinoceptor 7 (Homo sapiens)
inhibition: 56%

molecule: O=C(NCc1ccc(Cl)cc1Cl)[C@@H]1CCC(=O)N1c1cscn1
tgt: P2X purinoceptor 7 (Homo sapiens)
inhibition: 98%

molecule: O=C(NCc1ccc(Cl)cc1Cl)[C@@H]1C/C(=N\O)C(=O)N1c1cccs1
tgt: P2X purinoceptor 7 (Homo sapiens)
inhibition: 76%

So, COc1ccc(NC(=O)[C@@H]2CCC(=O)N2)c(OC)c1 ? Its inhibition was inactive

// inhibition value for COc1ccc(NC(=O)[C@@H]2CCC(=O)N2)cc1 : inactive

The values you see were collected from ChEMBL document CHEMBL4627246.
